target-system: Recombinant human farnesyl transferase (FTase) (Homo sapiens)
protocol: FTase fluorescence assay (farnesylation of dansyl-GCVLS peptide)
assay-setup: recombinant human FTase 2.5 nM, Dansyl-GCVLS 85 nM, FPP 30 nM, 30° C., 50 minutes
IC50 by entry:

Below, 3 molecules whose answers are already recorded.
input: Data request, read-out IC50, for Cn1cncc1[C@@]1(N)c2ccc(C#N)c(c2)CCc2cccc(c2)-c2cc(C#N)nc3ccc1cc23 [(R)-9]
output: ≤ 10 nM

input: Data request, read-out IC50, for [2H]C([2H])([2H])OC1(c2nncn2C)c2ccc(Cl)c(c2)OCCc2cccc(c2)-c2cc(=O)n(C([2H])([2H])[2H])c3ccc1cc23 (stereo not shown)
output: 10 to 100 nM

input: Data request, read-out IC50, for Cn1cncc1[C@@]1(N)c2ccc(Cl)c(c2)OCCc2cccc(c2)-c2cc(=O)n(C3CC3)c3ccc1cc23 [(S)-30]
output: ≤ 10 nM

Shifting focus to the molecule that follows.
input: Data request, read-out IC50, for [2H]C([2H])([2H])n1c(=O)cc2c3cc(ccc31)[C@@](N)(c1cncn1C)c1ccc(C#N)c(c1)CCc1cccc-2c1 [(R)-8]
output: ≤ 10 nM

---

IC50 by entry:
target-system: Recombinant human farnesyl transferase (FTase) (Homo sapiens)
Construct: purchased Crelux (Martinsried, Germany)
protocol: FTase fluorescence assay (farnesylation of dansyl-GCVLS peptide)
Assay type: biochemical
assay-setup: recombinant human FTase 2.5 nM, Dansyl-GCVLS 85 nM, FPP 30 nM, 30° C., 50 minutes

input: Data request, read-out IC50, for Cn1cncc1C1(O)c2cccc(c2)CCc2cccc(c2)-c2cc(=O)[nH]c3ccc1cc23 (stereo not drawn) [Compound 1]
output: 10 to 100 nM

input: Data request, read-out IC50, for Cn1cncc1[C@]1(O)c2ccc(C#N)c(c2)OCc2cccc(c2)-c2cc(=O)n(C)c3ccc1cc23 (racemic) [(R)-18]
output: > 100 nM

Shifting focus to the compound that follows.
input: Data request, read-out IC50, for Cn1cncc1C1(O)c2ccc(Br)c(c2)COc2cccc(c2)-c2cncc3ccc1cc23 (stereo not drawn) [Compound 83]
output: ≤ 10 nM

---

target-system: Recombinant human farnesyl transferase (FTase) (Homo sapiens, UniProt P49356)
protocol: FTase fluorescence assay (farnesylation of dansyl-GCVLS peptide)
assay-setup: recombinant human FTase 2.5 nM, Dansyl-GCVLS 85 nM, FPP 30 nM, 30° C., 50 minutes
assay-endpoint: IC50

Below, 7 compounds whose answers are already recorded.
input: Data request, read-out IC50, for COc1cc2c3cc(ccc3n1)C(O)(c1cncn1C)c1cccc(c1)OCc1cccc-2c1 (centres unmarked)
output: > 0.1 µM

input: Data request, read-out IC50, for COc1cc2c3cc(cnc3c1)C(O)(c1cncn1C)c1ccc(Br)c(c1)COc1cccc-2c1 (centres unmarked)
output: > 0.1 µM

input: Data request, read-out IC50, for [2H]C([2H])([2H])n1c(=O)cc2c3cc(ccc31)[C@@](N)(c1nncn1C)c1ccc(Cl)c(c1)OCCc1cccc-2c1 [(S)-34]
output: ≤ 0.01 µM

input: Data request, read-out IC50, for Cn1cncc1C1(O)c2cccc(c2)OCCc2cccc(c2)-c2cc(=O)[nH]c3ccc1cc23 (centres unmarked)
output: 0.01 to 0.1 µM

input: Data request, read-out IC50, for [2H]C([2H])([2H])n1c(=O)cc2c3cc(ccc31)C(O)(c1cncn1C)c1cnc(C#N)c(c1)COc1cccc-2c1 (centres unmarked)
output: ≤ 0.01 µM

input: Data request, read-out IC50, for Cn1cncc1C1(O)c2ccc(C#N)c(c2)COc2cccc(c2)-c2nccc3ccc1cc23 (centres unmarked)
output: 0.01 to 0.1 µM

input: Data request, read-out IC50, for COc1cc2c3cc(ccc3n1)C(O)(c1cncn1C)c1ccc(Br)c(c1)COc1cccc-2c1 (centres unmarked)
output: 0.01 to 0.1 µM

Shifting focus to the compound that follows.
input: Data request, read-out IC50, for Cn1cncc1[C@@]1(O)c2ccc(Cl)c(c2)OCCc2cccc(c2)-c2cc(=O)[nH]c3ccc1cc23 [(S)-25]
output: ≤ 0.01 µM
